# ASSAY TARGET: β2AR-Gαs (Homo sapiens, UniProt P07550)
MEASUREMENT TYPE: Kd (nM)
Answer with a number only, understood to be in nM.

Query: Entry CCCc1ccccc1OC[C@@H](O)CNC(C)C [[3H] dihydroalprenolol] has what Kd?
Reply: 0.213

---

# ASSAY TARGET: UniProt P07550
MEASUREMENT TYPE: pKd
Scale: pKd equals -log10([C]), with [C] in mol/L.

Query: Entry CCCc1ccccc1OC[C@@H](O)CNC(C)C [[3H] dihydroalprenolol] has what pKd?
Reply: 9.83

---

# ASSAY TARGET: β2AR-βarr2 (Homo sapiens, UniProt P07550+P32121)
# METHOD NOTES: Saturation binding of [3H] DHA, membranes of t β2AR-βarr2 HEK 293 cells
MEASUREMENT TYPE: pKd
Scale: pKd equals -log10([C]), with [C] in mol/L.

Query: Entry CCCc1ccccc1OC[C@@H](O)CNC(C)C [[3H] dihydroalprenolol] has what pKd?
Reply: 9.63
